assay: blockers of an Epstein-Barr virus protein-peptide interaction – biochemical, fluorescence polarization, dose response (AID 1419); conditions: cell-free protein-peptide binding, 2 h
Active and inactive are the calls of the source. How the calls were made is not given here.
Reply using exactly one outcome from yes (1) (active), no (0) (inactive)

Solved cases (5 shown):
Cc1ccc([N+](=O)[O-])cc1-c1ccc(/C=C(\C#N)c2[nH]nc(N)c2C#N)o1: no (0)
COc1ncnc2c1N=C1CC(C)(C)CC(N)=C1S2: yes (1)
N#CC(c1nc2ccccc2nc1N1CCCC1)S(=O)(=O)c1ccccc1 (stereo unspecified): no (0)
CCN(CC)C(=O)/C(=C\c1ccc(Br)cc1)NC(=O)c1ccccc1OC: yes (1)
O=c1[nH]n2c(=O)c3c([nH]c2c1N=Nc1cccc(Cl)c1)CCC3: no (0)

stdin: Each compound tested received a call. Report the one for "O=C(Cn1cnc2scc(-c3cccc([N+](=O)[O-])c3)c2c1=O)NCc1ccco1" .
stdout: no (0)

stdin: Per the assay record, what outcome was assigned to "Cc1cc(/C=N/NC(N)=S)c(O)c(/C=N/NC(N)=S)c1" ?
stdout: yes (1)

stdin: Could you please tell me the result logged for "CN1CC=C2C(C#N)=C(N)C(C#N)(C#N)[C@H](c3ccoc3)[C@H]2C1" in this assay?
stdout: no (0)

stdin: Tell me the assay call for "CC(=O)c1ccc(Nc2c3c(nc4ccccc24)CCCC3)cc1" please.
stdout: no (0)

stdin: Answer briefly: the call reported for "CC(=O)Nc1ccc2cc3ccc(NC(C)=O)cc3nc2c1" in this assay.
stdout: yes (1)

stdin: Record lookup: outcome of this test for COc1ccc(C(CC(=O)N2CCOCC2)c2c(OC)cc(OC)c3c(-c4ccccc4)cc(=O)oc23)cc1 (stereo unspecified) ?
stdout: no (0)

stdin: For O=C(Nc1nccs1)C(c1ccccc1)N1CCCC1 (stereo unspecified) , what call appears in the results of this test?
stdout: no (0)

stdin: Each compound tested received a call. Report the one for "COc1ccc(NC(=O)Cn2ncc(Cl)c(Cl)c2=O)cc1S(=O)(=O)N1CCOCC1" .
stdout: no (0)
